study.target: T1, p5 peptide of EGFL7 (human)
T1 construct: also called Peptide P5
T1 peptide: RACSTYRTIYRTA
protocol.details: SPR (Biacore), IgG over immobilized P5 peptide at 37 C;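 further: IgG variants injected at 0.5–1000 nM (2-fold series), 3 min association and 3.5 min dissociation, reference flow cell subtracted, kinetics fitted with a 1:1 Langmuir model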
pKd: −log10 of the molar value.
Reported pKd values for the following binders.
observation.type: pKd

• 18F7.v6J IgG (antibody, V domains shown, IgG; Variant of 18F7.v6) VH: EVQLVESGGGLVQPGGSLRLSCAASGYTFIDYYMNWVRQAPGKGLEWVGDINLDNSGTHYNQKFKGRFTISRDKSKNTAYLQMNSLRAEDTAVYYCAREGVYHDYDDYAMDYWGQGTLVTVSS VL: DIQMTQSPSSLSASVGDRVTITCRTSQSLVHINSITYLHWYQQKPGKAPKLLIYRVSNRFSGVPSRFSGSGSGTDFTLTISSLQPEDFATYYCGQSTHVPLTFGQGTKVEIK = 8.25
• 18F7.v3 IgG (antibody, name in Kabat numbering, V domains shown, IgG; Kabat numbering; also called 18F7-KA) VH: EVQLVESGGGLVQPGGSLRLSCAASGYTFIDYYMNWVRQAPGKGLEWVGDINLDNGGTHYNQKFKGRFTISRDKSKNTAYLQMNSLRAEDTAVYYCAREGVYHDYDDYAMDYWGQGTLVTVSS VL: DIQMTQSPSSLSASVGDRVTITCRTSQSLVHINGITYLHWYQQKPGKAPKLLIYRVSNRFSGVPSRFSGSGSGTDFTLTISSLQPEDFATYYCSQSTHVPLTFGQGTKVEIKR = 8.37
• 18F7.v10 IgG (antibody, V domains shown, IgG; Kabat numbering) VH: EVQLVESGGGLVQPGGSLRLSCAASGYTFIDYYMNWVRQAPGKGLEWVGDINLDNGGTHYNQKFKGRFTISRDKSKNTAYLQMNSLRAEDTAVYYCAREGVYHPYDDYAMDYWGQGTLVTVSS VL: DIQMTQSPSSLSASVGDRVTITCRTSQSLVHINGITYLHWYQQKPGKAPKLLIYRVSNRFSGVPSRFSGSGSGTDFTLTISSLQPEDFATYYCSQSTHVPLTFGQGTKVEIK = 9.01
• 18F7.v8 IgG (antibody, V domains shown, IgG; Kabat numbering) VH: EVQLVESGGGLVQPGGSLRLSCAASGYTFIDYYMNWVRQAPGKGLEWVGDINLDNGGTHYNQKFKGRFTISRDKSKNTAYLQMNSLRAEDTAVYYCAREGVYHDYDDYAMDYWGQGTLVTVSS VL: DIQMTQSPSSLSASVGDRVTITCRTSQSLVHINGITYLHWYQQKPGKAPKLLIYRVSNRFSGVPSRFSGSGSGTDFTLTISSLQPEDFATYYCVQSTHVPLTFGQGTKVEIK = 8.67
• 18F7.v6K IgG (antibody, V domains shown, IgG; also called hu18F7.v6k; h18F7.v6k) VH: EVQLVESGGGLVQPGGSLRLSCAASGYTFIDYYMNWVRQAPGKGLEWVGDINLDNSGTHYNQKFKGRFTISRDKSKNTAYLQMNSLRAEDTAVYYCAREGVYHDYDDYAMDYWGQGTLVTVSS VL: DIQMTQSPSSLSASVGDRVTITCRTSQSLVHINAITYLHWYQQKPGKAPKLLIYRVSNRFSGVPSRFSGSGSGTDFTLTISSLQPEDFATYYCGQSTHVPLTFGQGTKVEIKR = 8.28
